Data provenance: the supplement of paper PMC12764529

EXPERIMENT_NOTES: folding stability dG unfold from trypsin proteolysis; higher = more stable
# Lookup of reported folding stability dG unfold keyed by entry
// note: answer is a bare numeric in kcal/mol

Some solved entries appear below for comparison.
Query: Reported folding stability dG unfold for SAGGSAGGSAGGPFPFKIDSVEWETTDNKRYYEIKLEFPNGNPVTIHMPPNNPDDVKDAISAGGSAGGSAGG [r7_365_TrROS] : what is it?
Reply: 0.232

Query: Reported folding stability dG unfold for SAGGSAGGSAGPPNVKLTFTIMIMEMKMEPPPDGNPKMEMVMVPIEIEITAPPGDEITAISAGGSAGGSAGG [r11_174_TrROS] : what is it?
Reply: 2.41

Continuing:
Query: Reported folding stability dG unfold for SPEIKIEVFKNEDGEEIFIKIEVPPGWRIRIIYNGKEIEEIEVDGYRIRFEEVDGKLRIEVEPLPPGEKPSA [r9_221_TrROS_Hall] : what is it?
Reply: 3.87

Query: Reported folding stability dG unfold for SAGGIVVKVADGSYVRIVVYDPNNPVPRIETFPGGGVDDVIAAIAASPSFPNTVVYVERFDDGKPYPASAGG [r13_914_TrMRF] : what is it?
Reply: 0.871

Query: Reported folding stability dG unfold for SAGGSAGGSASITLTLGDTPLEVSTDPSTNTYTFTYPAPGLVLTLDVSTGKLSARPLAELASAGGSAGGSAG [r3_137_JUSTAS] : what is it?
Reply: 0.216

Query: Reported folding stability dG unfold for SAGGMKVTPNGKVVKKKPKVPVKKVTLTVKVKTAEEAKALADALRDLGYKVTVDEETGVVTVEVEIESAGGS [r16_765_TrROS_Hall] : what is it?
Reply: 0.996

Query: Reported folding stability dG unfold for SAGGSAGGSMTVETTPLATSRDPESDNTVTLTRTTVTFPDGTVRTETWTVTTAPDGTTTTTVSSAGGSAGGS [r12_250_JUSTAS] : what is it?
Reply: 0.00376

Query: Reported folding stability dG unfold for SAGGSAKVVEKDGKLVIELEVPPDMSEEELKKLAEELAKLLPPGAKIEVKYDKETKRVVIVVELKDSAGGSA [r15_210_TrROS_Hall] : what is it?
Reply: 1.64
